Entries and their pIC50 values follow.
Biological target: Nuclear receptor ROR-gamma (Mus musculus)
Sequence (P51450 whole entry, the tested form may be a part): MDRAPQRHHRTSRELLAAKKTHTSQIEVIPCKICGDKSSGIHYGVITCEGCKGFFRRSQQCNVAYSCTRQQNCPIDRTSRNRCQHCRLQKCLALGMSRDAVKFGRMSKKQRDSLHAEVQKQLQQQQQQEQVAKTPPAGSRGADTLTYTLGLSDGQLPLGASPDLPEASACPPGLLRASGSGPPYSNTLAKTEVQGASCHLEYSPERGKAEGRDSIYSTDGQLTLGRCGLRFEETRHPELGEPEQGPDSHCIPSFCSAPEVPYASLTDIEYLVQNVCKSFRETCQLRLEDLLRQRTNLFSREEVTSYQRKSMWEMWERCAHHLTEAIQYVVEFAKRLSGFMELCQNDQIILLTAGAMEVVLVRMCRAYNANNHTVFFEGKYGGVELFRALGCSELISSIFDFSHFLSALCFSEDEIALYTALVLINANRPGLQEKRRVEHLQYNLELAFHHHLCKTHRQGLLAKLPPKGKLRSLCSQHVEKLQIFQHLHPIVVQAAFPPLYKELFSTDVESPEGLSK
Experiment: Antagonist activity at mouse Gal4-fused DBD RORgamma LBD (Pro-261-end) expressed in TRex-CHOK1 cells after 20 hrs by luciferase reporter gene assay
Assay type: cell-based
Please report pIC50 as the negative decimal logarithm of the molar concentration, giving only the number.

Worked set:
- compound: "Fc1cccc(CC2=N[C@@H](CCCCN3C[C@H](Cc4ccccc4)N(CCc4ccccc4)C3=S)CN2)c1"
  pIC50: 5.18
- compound: "Fc1ccc(CC2=N[C@@H](CCCCN3C[C@H](Cc4ccccc4)N(CCc4ccccc4)C3=S)CN2)cc1"
  pIC50: 5.11
- compound: "CCCC1=N[C@@H](CCCCN2C[C@H](Cc3ccccc3)N(CCCC3CCCC3)C2=S)CN1"
  pIC50: 5.19
- compound: "C=CCC1=N[C@@H](CCCCN2C[C@H](Cc3ccccc3)N(CCc3ccccc3)C2=S)CN1"
  pIC50: 4.99
- compound: "CCCC1=N[C@@H](CCCCN2C[C@H](Cc3ccccc3)N(CCC3CC4CCC3C4)C2=S)CN1 (some centres not stated)"
  pIC50: 5.03

CCCC1=N[C@@H](CCCCN2C[C@@H](C(C)(C)C)N(CCc3ccccc3)C2=S)CN1 yielded pIC50 of 4.93

S=C1N(CCCC[C@H]2CNC(CCC3CCCC3)=N2)C[C@H](Cc2ccccc2)N1CCc1ccccc1 yielded pIC50 of 5.25

* * *

Biological target: Nuclear receptor ROR-beta (Rattus norvegicus)
Test: Antagonist activity at rat Gal4-fused DBD RORbeta LBD (Pro-205-end) expressed in TRex-CHOK1 cells after 20 hrs by luciferase reporter gene assay
propertyLabel: pIC50
Please report pIC50 as the negative decimal logarithm of the molar concentration, giving only the number.

Worked set:
- molecule: "S=C1N(CCCC[C@H]2CNC(CC3CCCCC3)=N2)C[C@H](Cc2ccccc2)N1CCc1ccccc1"
  pIC50: 5.08
- molecule: "Cc1cccc(CC2=N[C@@H](CCCCN3C[C@H](Cc4ccccc4)N(CCc4ccccc4)C3=S)CN2)c1"
  pIC50: 5.05
- molecule: "C/C=C/C1=N[C@@H](CCCCN2C[C@H](Cc3ccccc3)N(CCc3ccccc3)C2=S)CN1"
  pIC50: 4.90
- molecule: "CCCC1=N[C@@H](CCCCN2C[C@H](Cc3ccccc3)N(CCC3CC4CCC3C4)C2=S)CN1 (stereo partly drawn)"
  pIC50: 4.77

Now examine the next entry.
Entry CC(CC1=N[C@@H](CCCCN2C[C@H](Cc3ccccc3)N(CCc3ccccc3)C2=S)CN1)c1ccccc1 (stereo partly drawn) under Nuclear receptor ROR-beta (Rattus norvegicus) had pIC50 of 4.96

* * *

Target: Nuclear receptor ROR-beta (Rattus norvegicus, UniProt P45446)
Sequence (P45446 whole entry): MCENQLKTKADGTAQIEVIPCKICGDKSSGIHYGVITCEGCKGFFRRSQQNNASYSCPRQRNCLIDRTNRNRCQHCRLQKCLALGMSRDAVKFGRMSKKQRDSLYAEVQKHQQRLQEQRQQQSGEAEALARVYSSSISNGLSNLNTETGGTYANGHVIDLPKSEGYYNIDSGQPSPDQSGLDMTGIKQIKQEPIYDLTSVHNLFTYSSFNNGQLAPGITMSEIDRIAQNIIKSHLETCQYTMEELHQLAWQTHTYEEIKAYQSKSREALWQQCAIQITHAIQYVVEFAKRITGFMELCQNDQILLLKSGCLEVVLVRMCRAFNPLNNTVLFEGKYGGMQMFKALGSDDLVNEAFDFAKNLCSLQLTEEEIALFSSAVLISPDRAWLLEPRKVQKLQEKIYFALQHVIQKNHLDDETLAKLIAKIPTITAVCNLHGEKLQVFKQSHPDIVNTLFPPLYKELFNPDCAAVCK
Experiment: Antagonist activity at rat Gal4-fused DBD RORbeta LBD (Pro-205-end) expressed in TRex-CHOK1 cells after 20 hrs by luciferase reporter gene assay
Entries and their IC50 values follow.

CCCC1=N[C@@H](CCCCN2C[C@H](Cc3ccccc3)N(CCC3C4CC5CC(C4)CC3C5)C2=S)CN1 (some centres not stated) yielded IC50 of 10.7 µM
